- tested_system: T1, EsCas13d, nuclease-dead (Eubacterium siraeum, UniProt B0MS50, R295A;H300A;R849A;H854A)
- T1 sequence: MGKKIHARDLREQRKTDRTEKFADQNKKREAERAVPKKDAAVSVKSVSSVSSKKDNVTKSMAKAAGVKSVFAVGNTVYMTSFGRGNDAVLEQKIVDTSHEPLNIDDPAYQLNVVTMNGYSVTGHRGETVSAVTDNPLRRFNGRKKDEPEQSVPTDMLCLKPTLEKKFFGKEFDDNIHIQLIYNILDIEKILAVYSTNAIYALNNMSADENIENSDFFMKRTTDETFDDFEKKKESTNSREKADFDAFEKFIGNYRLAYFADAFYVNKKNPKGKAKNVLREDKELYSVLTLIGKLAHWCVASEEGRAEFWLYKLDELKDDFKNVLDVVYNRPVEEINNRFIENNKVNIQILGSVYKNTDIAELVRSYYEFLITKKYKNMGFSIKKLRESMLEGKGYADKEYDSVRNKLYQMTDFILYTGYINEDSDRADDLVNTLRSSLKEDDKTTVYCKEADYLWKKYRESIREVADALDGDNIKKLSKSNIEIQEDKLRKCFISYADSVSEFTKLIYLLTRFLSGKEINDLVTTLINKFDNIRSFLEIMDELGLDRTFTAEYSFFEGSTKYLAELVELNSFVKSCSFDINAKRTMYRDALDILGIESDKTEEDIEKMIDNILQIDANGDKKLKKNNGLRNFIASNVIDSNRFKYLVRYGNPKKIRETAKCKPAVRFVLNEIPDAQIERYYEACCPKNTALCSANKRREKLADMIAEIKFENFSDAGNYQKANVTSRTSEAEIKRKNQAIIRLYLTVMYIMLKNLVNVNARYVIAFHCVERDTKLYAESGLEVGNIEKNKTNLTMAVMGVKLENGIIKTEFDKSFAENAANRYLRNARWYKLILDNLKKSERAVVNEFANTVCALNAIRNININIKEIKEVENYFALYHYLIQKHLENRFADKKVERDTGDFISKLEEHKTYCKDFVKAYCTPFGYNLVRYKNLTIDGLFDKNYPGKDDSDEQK
- assay_details: crRNA (strand 1, pre-loaded); Mg2+; 40 mM Tris-HCl pH 7.5, 150 mM NaCl, 6 mM MgCl2, 1 mM DTT, 0.1% Tween-20, 0.2 mg/ml BSA; 25 C; 10 min per concentration, then washed
- condition_set: tags: His6-TwinStrep-SUMO cleaved; N-terminal SNAP kept (SNAP-Surface 488); label: 3' end held by stalled T7 RNA polymerase
measured_property: Kd (nM)

[[record]]
binder = "target 2 MT 5'PFS GCA 3'PFS ACG (mixed) RNA 1: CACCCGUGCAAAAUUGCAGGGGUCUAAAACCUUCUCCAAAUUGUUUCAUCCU RNA 2: GGGAAUGGAUCCACAUCUACGAAUUCGCAAGGAUGAAACAAUUUGGAGAAGACGAGAUCGGAAGAGCACACGU"
data_value = 13.3

[[record]]
binder = "target 3 insG 3' of 7,insU 3' of 6 (mixed) RNA 1: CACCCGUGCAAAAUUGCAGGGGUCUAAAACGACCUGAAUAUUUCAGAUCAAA RNA 2: GGGAAUGGAUCCACAUCUACGAAUUCGUUUUUGAUCUGAAAUAUUGCUAGGUCUGCAGAUCGGAAGAGCACACGU"
data_value = 20.1

[[record]]
binder = "target 1 insG 3' of 7,insA 3' of 2 (mixed) RNA 1: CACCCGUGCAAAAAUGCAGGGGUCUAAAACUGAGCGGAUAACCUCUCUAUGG RNA 2: GGGAAUGGAUCCACAUCUACGAAUUCGUACCAUAGAGAGGUUAUCGCGCUCAACCGAGAUCGGAAGAGCACACGU"
data_value = 6.36

[[record]]
binder = "target 3 insU 3' of 22,insC 3' of 22 (mixed) RNA 1: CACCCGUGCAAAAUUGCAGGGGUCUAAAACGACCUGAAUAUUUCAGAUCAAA RNA 2: GGGAAUGGAUCCACAUCUACGAAUUCGUUUUCUUGAUCUGAAAUAUUCAGGUCUGCAGAUCGGAAGAGCACACGU"
data_value = 39.5

